molecular target: serotonin 1A receptor (Rattus norvegicus, UniProt P19327); construct: To the receptor fraction of the hippocampus were added a test compound and 0.5 nM of [^3H]; 8-hydroxy-dipropylaminotetralin; from tissue; host or cells: rat hippocampus membrane fraction; assay: Binding test on [3H] 8-hydroxy-dipropylaminotetralin, hippocampus receptor fraction; parameters: species or system SD rats; conditions: rat hippocampus receptor fraction, 0.5 nM [3H] 8-OH-DPAT, room temperature 30 min; read-out: 5HT1
Sequence (P19327 whole entry): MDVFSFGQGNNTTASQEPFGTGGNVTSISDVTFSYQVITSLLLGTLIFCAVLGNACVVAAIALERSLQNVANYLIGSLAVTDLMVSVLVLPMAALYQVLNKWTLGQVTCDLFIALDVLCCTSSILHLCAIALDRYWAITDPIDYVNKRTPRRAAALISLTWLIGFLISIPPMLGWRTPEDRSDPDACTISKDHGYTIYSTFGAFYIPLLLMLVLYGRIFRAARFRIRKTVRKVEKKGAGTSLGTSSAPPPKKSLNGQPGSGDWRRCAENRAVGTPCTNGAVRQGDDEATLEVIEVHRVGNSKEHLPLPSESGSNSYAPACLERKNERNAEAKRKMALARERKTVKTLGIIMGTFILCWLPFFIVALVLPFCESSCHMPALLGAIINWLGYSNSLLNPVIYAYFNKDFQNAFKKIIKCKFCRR
Counter-ions that a name gives are not always drawn.
Observed Property: Ki (µM)
Return type: number; implicit unit µM.

Some solved entries appear below for comparison.
- Compound: "CCN1CCN(c2nc(-c3ccc(OCCO)c(Cl)c3)cc3ccsc23)CC1"
  Unit Abbrev: "µM"
  Numeric Value: 0.0305
- Compound: "CCN1CCN(c2nc(-c3ccnc(OC)c3)cc3ccccc23)CC1"
  Unit Abbrev: "µM"
  Numeric Value: 0.0226
- Compound: "CCN1CCN(c2nc(C#CCCc3ccccc3)cc3ccccc23)CC1 [Example 182, Dihydrochloride]"
  Unit Abbrev: "µM"
  Numeric Value: 0.01

Alright, here's another compound for you.
Lookup: For serotonin 1A receptor (Rattus norvegicus, UniProt P19327), provide Ki of CCCS(=O)(=O)NCc1ccc(-c2cc3ccccc3c(N3CCN(CC)CC3)n2)cc1Cl [Example 92, Hydrochloride] please.
Found: 0.0009
